Test system: PXR homodimer (NR concentration 270 nM)
test: PBM binding z-score (relative to random genomic background probes); higher = stronger binding; sequences stand for … in GC…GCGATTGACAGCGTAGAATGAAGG
This section presents sequences with their documented PBM binding z-score values.
Reply with just the number.

stdin: Quick check: PBM binding z-score of `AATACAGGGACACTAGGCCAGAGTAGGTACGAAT` ?
stdout: 0.0323

stdin: Quick check: PBM binding z-score of `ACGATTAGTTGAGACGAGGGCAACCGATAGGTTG` ?
stdout: 0.466

stdin: Quick check: PBM binding z-score of `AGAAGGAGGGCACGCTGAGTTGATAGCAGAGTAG` ?
stdout: 0.294

stdin: Quick check: PBM binding z-score of `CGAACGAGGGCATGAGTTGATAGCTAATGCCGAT` ?
stdout: 0.178

stdin: Quick check: PBM binding z-score of `GCAGACAGGTGAAACGCAGGTATCTCAGGGTGGC` ?
stdout: -0.634

stdin: Quick check: PBM binding z-score of `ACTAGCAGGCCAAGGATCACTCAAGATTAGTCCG` ?
stdout: -0.469

###

Test system: RXRa homodimer (NR concentration 180 nM)
test: PBM binding z-score (relative to random genomic background probes); higher = stronger binding; sequences stand for … in GC…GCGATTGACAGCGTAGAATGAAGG
Outcome: Satisfied for PBM binding z-score of at least 1; Not satisfied for anything lower.

Here are 5 sequences together with their reported answers.
> print(dat)
                             residues  assigned.class
1  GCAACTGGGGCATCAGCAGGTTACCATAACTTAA   Not satisfied
2  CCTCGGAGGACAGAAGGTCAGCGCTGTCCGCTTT       Satisfied
3  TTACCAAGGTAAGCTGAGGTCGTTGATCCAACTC   Not satisfied
4  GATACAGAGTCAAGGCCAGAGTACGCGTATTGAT   Not satisfied
5  ACAGGCAGGTGAGTGAAGGTAACTCAGCTGGACG   Not satisfied

stdin: Identify whether the reported PBM binding z-score of the following sequence is 1 or greater: `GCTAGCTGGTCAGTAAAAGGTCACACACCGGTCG`
stdout: Satisfied

stdin: Identify whether the reported PBM binding z-score of the following sequence is 1 or greater: `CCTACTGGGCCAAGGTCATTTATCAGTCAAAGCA`
stdout: Satisfied

stdin: Identify whether the reported PBM binding z-score of the following sequence is 1 or greater: `ATATGTAGGTTACATCCGGGTCCTTCAGGCTATG`
stdout: Satisfied

stdin: Identify whether the reported PBM binding z-score of the following sequence is 1 or greater: `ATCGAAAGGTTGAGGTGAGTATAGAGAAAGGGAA`
stdout: Satisfied

stdin: Identify whether the reported PBM binding z-score of the following sequence is 1 or greater: `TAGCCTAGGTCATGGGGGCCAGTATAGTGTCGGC`
stdout: Satisfied

stdin: Identify whether the reported PBM binding z-score of the following sequence is 1 or greater: `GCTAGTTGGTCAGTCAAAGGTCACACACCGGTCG`
stdout: Satisfied

stdin: Identify whether the reported PBM binding z-score of the following sequence is 1 or greater: `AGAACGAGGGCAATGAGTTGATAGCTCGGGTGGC`
stdout: Not satisfied

stdin: Identify whether the reported PBM binding z-score of the following sequence is 1 or greater: `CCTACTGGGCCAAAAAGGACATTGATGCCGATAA`
stdout: Not satisfied

stdin: Identify whether the reported PBM binding z-score of the following sequence is 1 or greater: `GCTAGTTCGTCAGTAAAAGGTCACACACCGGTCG`
stdout: Satisfied

stdin: Identify whether the reported PBM binding z-score of the following sequence is 1 or greater: `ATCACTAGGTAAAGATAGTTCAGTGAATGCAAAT`
stdout: Not satisfied

stdin: Identify whether the reported PBM binding z-score of the following sequence is 1 or greater: `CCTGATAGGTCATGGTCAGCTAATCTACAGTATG`
stdout: Satisfied

stdin: Identify whether the reported PBM binding z-score of the following sequence is 1 or greater: `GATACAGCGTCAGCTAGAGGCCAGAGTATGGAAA`
stdout: Not satisfied

stdin: Identify whether the reported PBM binding z-score of the following sequence is 1 or greater: `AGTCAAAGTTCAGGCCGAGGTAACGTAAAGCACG`
stdout: Satisfied

stdin: Identify whether the reported PBM binding z-score of the following sequence is 1 or greater: `CCTAGCAGTCCAGGGTCACTCAAGCATTTCGCTT`
stdout: Satisfied

stdin: Identify whether the reported PBM binding z-score of the following sequence is 1 or greater: `TCTTGTAGATCAATTGAGGTTAAGAAAGTGCGCT`
stdout: Not satisfied

stdin: Identify whether the reported PBM binding z-score of the following sequence is 1 or greater: `TAGACTAGGTCATGCGGGCCAGTATAGTGTCGGC`
stdout: Satisfied

stdin: Identify whether the reported PBM binding z-score of the following sequence is 1 or greater: `CGAACTAGGTCAGAACAGGACGGTGAAGGATGAT`
stdout: Satisfied

stdin: Identify whether the reported PBM binding z-score of the following sequence is 1 or greater: `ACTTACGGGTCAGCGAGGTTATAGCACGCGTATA`
stdout: Satisfied

stdin: Identify whether the reported PBM binding z-score of the following sequence is 1 or greater: `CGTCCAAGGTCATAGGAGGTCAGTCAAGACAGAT`
stdout: Satisfied

stdin: Identify whether the reported PBM binding z-score of the following sequence is 1 or greater: `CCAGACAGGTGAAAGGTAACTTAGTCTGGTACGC`
stdout: Satisfied

stdin: Identify whether the reported PBM binding z-score of the following sequence is 1 or greater: `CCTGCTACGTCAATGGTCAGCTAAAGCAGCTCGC`
stdout: Not satisfied
